Each entry below carries its measured pIC50, system: UniProt P21396.
Sequence (P21396 whole entry): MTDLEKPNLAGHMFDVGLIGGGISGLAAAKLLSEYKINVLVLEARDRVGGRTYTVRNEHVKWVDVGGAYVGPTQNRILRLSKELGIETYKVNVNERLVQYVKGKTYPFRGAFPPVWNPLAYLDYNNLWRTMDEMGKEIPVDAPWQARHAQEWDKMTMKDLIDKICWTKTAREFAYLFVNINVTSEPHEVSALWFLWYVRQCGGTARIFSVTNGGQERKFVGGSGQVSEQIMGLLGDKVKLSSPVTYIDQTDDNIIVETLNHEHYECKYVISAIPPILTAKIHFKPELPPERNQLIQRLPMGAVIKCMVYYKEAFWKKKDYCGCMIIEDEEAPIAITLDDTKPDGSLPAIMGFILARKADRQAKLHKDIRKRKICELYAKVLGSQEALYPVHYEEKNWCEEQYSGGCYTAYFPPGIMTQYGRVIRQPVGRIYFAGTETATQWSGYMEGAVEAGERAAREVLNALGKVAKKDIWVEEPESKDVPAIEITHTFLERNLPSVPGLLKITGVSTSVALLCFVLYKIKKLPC
Schema: pIC50 number; meaning minus log10 of the concentration expressed in molar units.

Entry N#CCc1cc(=O)oc2cc(OCc3cccc(Cl)c3)ccc12 : reported pIC50 = ?
6.33

Queued: CN(C)Cc1cc(=O)oc2cc(OCc3cccc(Cl)c3)ccc12
4.29

---

# ASSAYED SYSTEM: Cytochrome P450 2C19 (Homo sapiens, UniProt P33261)
# Sequence (P33261 whole entry): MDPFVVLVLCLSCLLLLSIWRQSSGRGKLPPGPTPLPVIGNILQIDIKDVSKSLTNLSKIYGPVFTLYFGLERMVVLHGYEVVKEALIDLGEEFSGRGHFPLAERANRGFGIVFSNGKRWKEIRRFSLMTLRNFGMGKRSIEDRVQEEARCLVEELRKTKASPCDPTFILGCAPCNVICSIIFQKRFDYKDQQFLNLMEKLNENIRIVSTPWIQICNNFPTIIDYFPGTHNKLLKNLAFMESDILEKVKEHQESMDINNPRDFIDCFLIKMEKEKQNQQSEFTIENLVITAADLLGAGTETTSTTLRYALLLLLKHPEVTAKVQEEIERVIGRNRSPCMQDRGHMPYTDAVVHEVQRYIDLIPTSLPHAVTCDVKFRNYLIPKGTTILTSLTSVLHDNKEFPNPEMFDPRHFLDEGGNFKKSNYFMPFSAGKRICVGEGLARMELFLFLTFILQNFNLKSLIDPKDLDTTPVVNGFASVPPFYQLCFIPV
# ASSAY PROCEDURE: Inhibition of human recombinant CYP2C19
pIC50: −log10 of the molar value.
READOUT: pIC50

Entry CNCc1cc(=O)oc2cc(OCc3cccc(Cl)c3)ccc12.CS(=O)(=O)O : reported pIC50 = ?
< 5.30

---

# ASSAYED SYSTEM: Amine oxidase [flavin-containing] B (Rattus norvegicus, UniProt P19643)
# Sequence (P19643 whole entry): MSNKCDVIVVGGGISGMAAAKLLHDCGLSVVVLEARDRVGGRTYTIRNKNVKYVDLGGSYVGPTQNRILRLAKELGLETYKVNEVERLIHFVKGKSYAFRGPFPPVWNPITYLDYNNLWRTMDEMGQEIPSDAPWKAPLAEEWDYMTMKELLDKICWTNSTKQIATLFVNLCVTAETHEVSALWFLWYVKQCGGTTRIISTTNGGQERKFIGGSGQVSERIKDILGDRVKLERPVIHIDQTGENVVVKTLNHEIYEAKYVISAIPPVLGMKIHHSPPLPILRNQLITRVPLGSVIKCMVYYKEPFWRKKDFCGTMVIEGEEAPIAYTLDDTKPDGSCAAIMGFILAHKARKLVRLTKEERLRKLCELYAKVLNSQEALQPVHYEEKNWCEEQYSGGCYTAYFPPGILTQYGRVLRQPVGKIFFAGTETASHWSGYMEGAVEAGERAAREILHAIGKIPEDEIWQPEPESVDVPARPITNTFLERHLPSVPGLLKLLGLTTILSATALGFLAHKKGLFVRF
READOUT: pIC50
Schema: pIC50 number; meaning minus log10 of the concentration expressed in molar units.

COMPOUND	ASSAYED SYSTEM	pIC50
CC(C(N)=O)c1cc(=O)oc2cc(OCc3cccc(F)c3)ccc12 (racemic)	Amine oxidase [flavin-containing] B (Rattus norvegicus, UniProt P19643)	7.00
CN(C)CCc1cc(=O)oc2cc(OCc3ccccc3)ccc12	Amine oxidase [flavin-containing] B (Rattus norvegicus, UniProt P19643)	6.34
NC(=O)Cc1cc(=O)oc2cc(OCc3cccnc3)ccc12	Amine oxidase [flavin-containing] B (Rattus norvegicus, UniProt P19643)	5.89
C[C@H](Nc1cc(=O)oc2cc(OCc3cccc(Cl)c3)ccc12)C(N)=O	Amine oxidase [flavin-containing] B (Rattus norvegicus, UniProt P19643)	6.68
NC(=O)[C@@H]1CCCN1c1cc(=O)oc2cc(OCc3cccc(Cl)c3)ccc12	Amine oxidase [flavin-containing] B (Rattus norvegicus, UniProt P19643)	5.02
NCc1cc(=O)oc2cc(OCc3cccc(Cl)c3)ccc12	Amine oxidase [flavin-containing] B (Rattus norvegicus, UniProt P19643)	7.82
NC(=O)Cc1cc(=O)oc2cc(OCc3cccc(Cl)c3)ccc12	Amine oxidase [flavin-containing] B (Rattus norvegicus, UniProt P19643)	7.52
CC(C(N)=O)c1cc(=O)oc2cc(OCc3ccccc3)ccc12 (racemic)	Amine oxidase [flavin-containing] B (Rattus norvegicus, UniProt P19643)	7.00

Notebook: pull reported pIC50 for Amine oxidase [flavin-containing] B (Rattus norvegicus, UniProt P19643), entry NC(=O)Cc1cc(=O)oc2cc(OCc3ccncc3)ccc12
5.70

Queued: CC(C)NCc1cc(=O)oc2cc(OCc3cccc(F)c3)ccc12
5.42

Queued: CCNCc1cc(=O)oc2cc(OCc3cccc(F)c3)ccc12
7.00

Queued: CNC(=O)Cc1cc(=O)oc2cc(OCc3ccccc3)ccc12
7.82
